Source listed as the nanobody polyreactivity screen of Harvey et al. (2022).

Experiment: yeast display, Sf9 membrane polyspecificity reagent, FACS + sequencing; frameworks hold sequencing errors
OBSERVATION_TYPE: polyreactivity (PSR sort gate)

[[record]]
sequence_entry = "QVQLVESGGGLVQAGGSLRLSCAASGGTFRPNAMGLYRQAPGKERELVAAISYTGSTYYADSVKGRFTISRDNAKYTVYLQMNSMKPEDTAVYYCAAYGYHRYYLYDYWGQGTQVTVSS"
observation_type = "polyreactivity (PSR sort gate)"
measured = "low polyreactivity"

[[record]]
sequence_entry = "QVQLVESGGGLVQAGGSLRLSCAASGFTFDSNAMGWYRQAPGKERELVAAISRRGGSTYYADSVKGRFTISRDNAKNTVYLQMNSLKPEDTAVYYCNKESWRIGRYQYDSWGQGTQVTVSS"
observation_type = "polyreactivity (PSR sort gate)"
measured = "high polyreactivity"

[[record]]
sequence_entry = "QVQLVESGGGLVQAGGSLRLSCAASGRIFVANGLGWYRQAPGKERELVAAITWSGDNTYYADSVKGRFTISRDNAKNTVYLQMNSLKPEDTAVYYCATPRSWYFPYGYWGQGTQVTVSS"
observation_type = "polyreactivity (PSR sort gate)"
measured = "high polyreactivity"

[[record]]
sequence_entry = "QVQLVESGGGLVQAGGSLRLSCAASGIIFLDYVMGWYRQAPGKERELVAAINSGGSTYYADSVKGRFTISRANAKNNVYLQMNSLKPEDSAVYYCNAVFYDDWQIYDYWGQGTQVTVSS"
observation_type = "polyreactivity (PSR sort gate)"
measured = "low polyreactivity"

[[record]]
sequence_entry = "QVQLVESGGGLVQAGGSLRLSCAASGSTLRRYAMGWSRQAPGKERELVAAISGSGDSTYYADSVKGRFTISRDNAKNTVYLQMNSLKPEDTAVYYCNAVYAFNGYDYWGQGTQVTVSS"
observation_type = "polyreactivity (PSR sort gate)"
measured = "low polyreactivity"

[[record]]
sequence_entry = "QVQLVESGGGLGQAGGSLRLSCAASGRTFRYYAKGWYRQAPGKERELVAAINRGGSTSYADSVKGRFTISRDNAKNTVYLQMNSLKPEDTAVYYCNVDKYRLVGFHSPYDYWGQGTQVTVSS"
observation_type = "polyreactivity (PSR sort gate)"
measured = "high polyreactivity"

[[record]]
sequence_entry = "QVQLEESGGGLVQAGGSLRLSCAASGRTFYPYAMGWYRQAPGKEREFVARITWSGGRTYYADSVKGRFTISRDNAKNTVYLQMNSLKPEDTAVYYCAARGHDAVIATRYDYWGQGTQVTVSS"
observation_type = "polyreactivity (PSR sort gate)"
measured = "high polyreactivity"

[[record]]
sequence_entry = "QVQLVESGGGLVQARGSLRLSCAASGFIFSYYAMGWYRQAPGKERELVAAISSSGGTTYADSVKGRFTISRDNAKNTVYLQMNSLKPEDTAVYYCARVQYWFYKPMYYWGQGTQVTVSS"
observation_type = "polyreactivity (PSR sort gate)"
measured = "high polyreactivity"


### Prompt Data request, read-out polyreactivity (PSR sort gate), for QVQLVESGGGLVQAGGSLRLSSAASGSIFVHYAMGWYRQAPGKEREFVAAISRGGGTTYYADSVKGRFTISRDNAKNTVYLQLNCLKPEDNAVYYCNAVRFFEHDYWGQGTQVTVSS
### Response high polyreactivity

### Prompt What do you get for QVQLVESGVGIVQAGGSLRVSCAASGRIFYYYAMGWYRHAPGKERELVAVINSGDSTNYADSVKGRFTISRDNAKNSVYFQMNSLKPEDTAVYYCAKGVISDLDYWADYDYWGQGTQVSVSS ?
### Response low polyreactivity

### Prompt What do you have for QVQLVESGAGLVQAGGSLRLSCAANTKGSYRQAPGKETELVAAINTGSSTYYADSVKGRFTISRDNAKNTVYLQMNSLKPEDTSVYYCNASYPQYLEYRTRQYNYWVQGTQVTVSS ?
### Response low polyreactivity

### Prompt Another sequence to look at: QVQLVESGGGLVQAGGSLRLSCAASGSTFVANTMGWYRQAPGKERELGAAITSDGGSTSYADSVKGRFSISRDNAKNTVYLQMNSLKPEDTAVYHCAAEYGGSSAKYGYWGQGTQVTVSS
### Response low polyreactivity

### Prompt What do you have for QVQLQESGGGLVQAGGSLRLSCAASGYISSWYPMGWYRQAPGKEREFVATLAPGATTYYADSVKGRFTISRDYAKNTVYLQMIRLKPEDTAVYYFAAGPENNDFYSFWGQGSQVTVSS ?
### Response low polyreactivity

### Prompt One more sequence: QVQLVESGGGLVQAGGSLRLSCAASGSTFIYYAMGWYRQAPGKERELVAGISIRGGSTYADSVKGRFTISRDNAKNTVYLQMNSVKPEDTAVYYCNAYKRIKANGYAIRYYYWGQGTQVTVSS
### Response high polyreactivity

----------
Assay: yeast display, Sf9 membrane polyspecificity reagent, FACS + sequencing; frameworks hold sequencing errors
OBSERVATION_TYPE: polyreactivity (PSR sort gate)

Solved cases below.
[[record]]
sequence_entry = "QVQLVESGGGLVQAGGSLRLSCAASGGTFPYNAMGGYRQAPGKERELVAVITSGDGTYYADSVKGRFTISRDNAKNTVYLQMNSLKPEDTAVYYCAADYVVWFSFVYVVEYDYWGQGTQVTVSS"
observation_type = "polyreactivity (PSR sort gate)"
measured = "low polyreactivity"

[[record]]
sequence_entry = "QVQLVESAGGLVQAGGSLRLSCAASGRTFGYYAMGWYRQAPGKERELVAAISSGGSTNYADSVKGRFTISRDNAKNTVYLQMNSLKPEDTAVYHCAAKAWYYPGRRNYYQYYYWGQGTQVTVSS"
observation_type = "polyreactivity (PSR sort gate)"
measured = "high polyreactivity"

[[record]]
sequence_entry = "QVQLVESGGGLVQAGGSLRLSCAASGITFNYYAMGWYRQAPGKERELVAAITDDGNTNYADSVKGRFTISRDNAKNTVYLQMNSLKPEDTAVYYCAADLLGIPDYEYWGQGTQVTVSS"
observation_type = "polyreactivity (PSR sort gate)"
measured = "low polyreactivity"

[[record]]
sequence_entry = "QVQLVESGGGLVQAGGSLRLSCAASGSIFFYNVMGWYRQAPGKERELVAAITRSGGRTYYADSVKGRFTISRDNAKNNVYLQMNSLKPEDTAVYYCAAALGGKFDYWGQGTQVTVSS"
observation_type = "polyreactivity (PSR sort gate)"
measured = "high polyreactivity"


### Prompt Given the entry QVQLVESGGGLVQAGGSLRLSCAASGFTLRLNAMGWYRQAPGKERELVAAITTSDDGTYYADSVKGRFTISRDNAKNSVYLQLNSLKPEDTAVYYCAADYYSVLYDYWGQGTQVTVSS , report its measured polyreactivity (PSR sort gate).
### Response low polyreactivity

### Prompt Queued: QVQLVESGGGLVQAGGSLRLSCAASGRTFVDYDMGWYRQAPGKERELVADINSGGSAYYADSVKGRFTISRDNAKNTVYLQMNSLKPEDTAVYYCAASYYGDNKYDYWGQGTQVTVSS
### Response high polyreactivity

### Prompt Note, next up: QVQLVESGGGLVQAGGSLRLSCAASGRTFEIYAMGWYRQAPGKERDLVAAITSGGSTYYADSEKGRFTISRDNAKNTVYLQMNSLKPEDTAVYYCAADSSLYGVIRDFDYWGQGTQVTVSS
### Response high polyreactivity

### Prompt Another sequence: QVQLVESGGGLVQAGGSLRLSCAASGRIFYYYPMGWYRQAPGKERELVADITRGGGTYYADSVKGRFTISRDNAKNTVYLQMNSLKPEDTAVYYCAKGGPPESHHPYRYRFDYWGQGTQVTVSS
### Response low polyreactivity

### Prompt Try QVQLVESGGGLVQAGGSLRLSCAASGFTLFGYAMGWYRQAPGKERELVAAISKDGGSTYYADTVKGRFTISRDNAKNTVYLQMNSLKPEDTAVYYCAARVKRPQSGYDRRYGYWGQGTQVTVSS next.
### Response high polyreactivity

### Prompt Same thing, different sequence: QVQLVESGGGFVQAGGSLRLSCAASGRIFTRYAMGWYRQAPGKERELVASISWSGDGTYYADSVKGRFTISRDNAKNTVYLQMNSLKPDDTAVYYCAARYGTVVPGQVRWYGYGYWGQGTQVTVSS
### Response high polyreactivity

### Prompt Try the sequence QVQLVESGGGFVQAGGSLRLSCAASGFIFNRNAMGWYRQAPGKERELVAAISRSGGRTYYADSVKGRFTISRDTAKNTDYFQMNSLKPEDTAVYSCATEGYDGEFDYWGQGTQVTVSS
### Response high polyreactivity

### Prompt Field entry: QVQLVESGAGLVQAGGSLRLSCAASGFSFQSYTMGWSRQAPGKERELVAAISRSGGRTYYADSVKGRFTISRDNAKNTVYLQMTSLKPEDTAVYYCAVDYRTRVDYWGQGTQLTVSS
### Response high polyreactivity

### Prompt Now consider QVQLVESGGGLVQAGGSLRLSCAASGNTFVPYAMGWYIQAPRKEREFVAAISSTSGSTYYADSVKGRITISRDNAKNTVYLQMNSLKPEDTAVYYCATKRPYSSKRYKYWKVDYWGQGTQVTVSS and answer again.
### Response high polyreactivity
